Tested on: RSV strain A2
Method Description: RSV antiviral cytoprotection assay in Hep2 cells (96-well and 384-well format, Cell TiterGlo read-out)
Type: cell-based, Respiratory Syncytial Virus (RSV)
Measurement Conditions: human respiratory syncytial virus, HEp-2, 0.5 uM; RSV-induced cytopathic effect in Hep2 cells; calculated from fitted dose response curve, normalized to 0% and 100%
Overview of recorded inhibition at 0.5 µM for various molecules
Please respond with the number in % and leave the unit unwritten.

Read the entry Cc1cn2nc([C@@H]3CCCCN3C(=O)c3ccccc3CO)cc2nc1N1CC[C@H](N)C1 [Compound 291] and write its reported inhibition at 0.5 µM. 88

Read the entry Cc1cn2nc([C@@H]3CCCCN3C(=O)c3cc4c(s3)CCCC4)cc2nc1N1CC[C@H](N)C1 [Compound 370] and write its reported inhibition at 0.5 µM. 99

Read the entry CS(=O)(=O)Nc1ccc(Cl)cc1C(=O)N1CCCC[C@H]1c1cc2nc(N3CC(O)C3)cc(N3CC(N)C3)n2n1 [Compound 130] and write its reported inhibition at 0.5 µM. 100

Further cases:
Read the entry CC(=O)Nc1c(Cl)cc(C)cc1C(=O)N1CCCC[C@H]1c1cc2nc(C)c(C)c(N(C)C)n2n1 [Compound 246] and write its reported inhibition at 0.5 µM. 98

Read the entry Cc1cn2nc([C@@H]3CCCCN3C(=O)c3cc(Cl)ccc3NS(C)(=O)=O)cc2nc1N1CC(OC(=O)CN)C1 [Compound 172] and write its reported inhibition at 0.5 µM. 100

Read the entry CNc1ccccc1C(=O)N1CCCC[C@H]1c1cc2[nH]c(C)c(C)c(=O)n2n1 [Compound 7] and write its reported inhibition at 0.5 µM. 93

Read the entry CCc1ccc(NS(C)(=O)=O)c(C(=O)N2CCCC[C@H]2c2cc3nc(C4CC4)cc(C)n3n2)c1 [Compound 115] and write its reported inhibition at 0.5 µM. 100

----------
Overview of recorded inhibition at 0.5 µM for various compounds
System: RSV strain A2
Method Description: RSV antiviral cytoprotection assay in Hep2 cells (96-well and 384-well format, Cell TiterGlo read-out)
Format: cell-based, Respiratory Syncytial Virus (RSV)
Measurement Conditions: human respiratory syncytial virus, HEp-2, 0.5 uM; RSV-induced cytopathic effect in Hep2 cells; calculated from fitted dose response curve, normalized to 0% and 100%
Please respond with the number in % and leave the unit unwritten.

Look up RSV strain A2 data: inhibition at 0.5 µM of "CS(=O)(=O)Nc1ccc(Cl)cc1C(=O)N1CCCC[C@H]1c1cc2nc(N3CCC3)cc(N3CC(O)C3)n2n1" , then report it. 100

Look up RSV strain A2 data: inhibition at 0.5 µM of "Cc1ccc(C(=O)N2CCCC[C@H]2c2cc3nc(N4CC[C@H](N)C4)c(C)cn3n2)s1" , then report it. 100

Look up RSV strain A2 data: inhibition at 0.5 µM of "CCc1ccc(C(=O)N2CCCC[C@H]2c2cc3nc(N4CC[C@H](N)C4)c(C)cn3n2)s1" , then report it. 100

Look up RSV strain A2 data: inhibition at 0.5 µM of "Cc1cn2nc([C@@H]3CCCCN3C(=O)c3nccc4ccccc34)cc2nc1N1CC[C@H](N)C1" , then report it. 100

Look up RSV strain A2 data: inhibition at 0.5 µM of "CS(=O)(=O)Nc1ccc(Cl)cc1C(=O)N1CCCC[C@H]1c1cc2nc(N3CC(N)C3)cc(N3CC(N)C3)n2n1" , then report it. 100

Look up RSV strain A2 data: inhibition at 0.5 µM of "CS(=O)(=O)Nc1ccc(Cl)cc1C(=O)N1CCCC[C@H]1c1cc2nc(N3CCC3)cc(N3CCCN3)n2n1" , then report it. 99

Further cases:
Look up RSV strain A2 data: inhibition at 0.5 µM of "COc1ccc(NS(C)(=O)=O)c(C(=O)N2CCCC[C@H]2c2cc3[nH]c(C)c(C)c(=O)n3n2)c1" , then report it. 94

----------
System: RSV strain A2
Method Description: RSV antiviral cytoprotection assay in Hep2 cells (96-well and 384-well format, Cell TiterGlo read-out)
Type: cell-based, Respiratory Syncytial Virus (RSV)
Measurement Conditions: human respiratory syncytial virus, HEp-2, 0.5 uM; RSV-induced cytopathic effect in Hep2 cells; calculated from fitted dose response curve, normalized to 0% and 100%
Overview of recorded inhibition at 0.5 µM for various compounds
Please respond with the number in % and leave the unit unwritten.

Worked examples follow.
Read the entry Cc1cn2nc([C@@H]3CCCCN3C(=O)c3cc(Cl)ccc3NS(C)(=O)=O)cc2nc1N1CCC[C@H]1C#N [Compound 200] and write its reported inhibition at 0.5 µM. 95

Read the entry Cc1cn2nc([C@@H]3CCCCN3C(=O)c3cccc(-c4cccnc4)c3)cc2nc1N1CC[C@H](N)C1 [Compound 411] and write its reported inhibition at 0.5 µM. 95

Read the entry Cc1cn2nc([C@@H]3CCCCN3C(=O)c3cc(Cl)ccc3NS(C)(=O)=O)cc2nc1N1CCC[C@H]1CO [Compound 210] and write its reported inhibition at 0.5 µM. 81

Read the entry Cc1cn2nc([C@@H]3CCCCN3C(=O)c3cnc(Cl)cn3)cc2nc1N1CC[C@H](N)C1 [Compound 309] and write its reported inhibition at 0.5 µM. 100

Read the entry CS(=O)(=O)Nc1ccc(Cl)cc1C(=O)N1CCCC[C@H]1c1cc2nc(N3CCC3)cc(CO)n2n1 [Compound 254] and write its reported inhibition at 0.5 µM. 90

Read the entry Cc1cc(N(C)C)nc2cc([C@@H]3CCCCN3C(=O)c3cc(Cl)ccc3NS(C)(=O)=O)nn12 [Compound 41] and write its reported inhibition at 0.5 µM. 95

Further cases:
Read the entry Cc1cc(C2CC2)nc2cc([C@@H]3CCCCN3C(=O)c3cc(F)c(F)cc3NS(C)(=O)=O)nn12 [Compound 117] and write its reported inhibition at 0.5 µM. 99

Read the entry Cc1ccc(NS(C)(=O)=O)c(C(=O)N2Cc3ccccc3C[C@H]2c2cc3nc(C)c(C)cn3n2)c1 [Compound 35] and write its reported inhibition at 0.5 µM. 96

Read the entry CCOc1ccccc1C(=O)N1CCCC[C@H]1c1cc2nc(N3CC[C@H](N)C3)c(C)cn2n1 [Compound 323] and write its reported inhibition at 0.5 µM. 100

----------
Test system: RSV strain A2
Method Description: RSV antiviral cytoprotection assay in Hep2 cells (96-well and 384-well format, Cell TiterGlo read-out)
Format: cell-based, Respiratory Syncytial Virus (RSV)
Measurement Conditions: human respiratory syncytial virus, HEp-2, 0.5 uM; RSV-induced cytopathic effect in Hep2 cells; calculated from fitted dose response curve, normalized to 0% and 100%
Overview of recorded inhibition at 0.5 µM for various compounds
For clarity, give the value followed by its unit.

Look up RSV strain A2 data: inhibition at 0.5 µM of CCOc1cccc(C(=O)N2CCCC[C@H]2c2cc3nc(N4CC[C@H](N)C4)c(C)cn3n2)c1 [Compound 319] , then report it. 100%

Look up RSV strain A2 data: inhibition at 0.5 µM of Cc1cn2nc([C@@H]3CCCCN3C(=O)c3ccsc3)cc2nc1N1CC[C@H](N)C1 [Compound 267] , then report it. 99%

Look up RSV strain A2 data: inhibition at 0.5 µM of Cc1cn2nc([C@@H]3CCCCN3C(=O)c3cc(Cl)ccc3NS(C)(=O)=O)cc2nc1N1CCC(C)(C#N)C1 (stereo partly drawn) [Compound 205] , then report it. 91%

----------
Overview of recorded inhibition at 0.5 µM for various compounds
Test system: RSV strain A2
Method Description: RSV antiviral cytoprotection assay in Hep2 cells (96-well and 384-well format, Cell TiterGlo read-out)
Type: cell-based, Respiratory Syncytial Virus (RSV)
Measurement Conditions: human respiratory syncytial virus, HEp-2, 0.5 uM; RSV-induced cytopathic effect in Hep2 cells; calculated from fitted dose response curve, normalized to 0% and 100%
Please respond with the number in % and leave the unit unwritten.

Worked examples follow.
Read the entry "Cc1cn2nc([C@@H]3CCCCN3C(=O)c3cc(Cl)ccc3NS(C)(=O)=O)cc2nc1N1C[C@@H](N)C2(CC2)C1" and write its reported inhibition at 0.5 µM. 64

Read the entry "Cc1cn2nc([C@@H]3CCCCN3C(=O)c3ccccc3O)cc2nc1N1CC[C@H](N)C1" and write its reported inhibition at 0.5 µM. 100

Read the entry "CS(=O)(=O)Nc1ccc(Cl)cc1C(=O)N1CCCC[C@H]1c1cc2nc(N3CC[C@@H](O)C3)cc(N3CC(N)C3)n2n1" and write its reported inhibition at 0.5 µM. 97

Read the entry "CS(=O)(=O)Nc1ccc(Cl)cc1C(=O)N1CCCC[C@H]1c1cc2nc(N3CC[C@@H](O)C3)ccn2n1" and write its reported inhibition at 0.5 µM. 98

Read the entry "Cc1ccc(N2CCCC2=O)c(C(=O)N2CCCC[C@H]2c2cc3nc(C4CC4)cc(C)n3n2)c1" and write its reported inhibition at 0.5 µM. 97

Read the entry "CCc1cc(C(=O)N2CCCC[C@H]2c2cc3nc(N4CC[C@H](N)C4)c(C)cn3n2)n(C)n1" and write its reported inhibition at 0.5 µM. 100

Read the entry "Cc1cn2nc([C@@H]3CCCCN3C(=O)c3onc(C)c3C)cc2nc1N1CC[C@H](N)C1" and write its reported inhibition at 0.5 µM. 99.8

Read the entry "Cc1cccc(NS(C)(=O)=O)c1C(=O)N1CCCC[C@H]1c1cc2[nH]c(C)c(C)c(=O)n2n1" and write its reported inhibition at 0.5 µM. 99

Further cases:
Read the entry "Cc1c[nH]c2cc([C@@H]3CCCCN3C(=O)c3cc(F)ccc3NS(C)(=O)=O)nn2c1=O" and write its reported inhibition at 0.5 µM. 75

Read the entry "Cc1cc(N2CC(N)C2)nc2cc([C@@H]3CCCCN3C(=O)c3cc(Cl)ccc3NS(C)(=O)=O)nn12" and write its reported inhibition at 0.5 µM. 100

Read the entry "Cc1cn2nc([C@@H]3CCCCN3C(=O)c3cc4ccccn4n3)cc2nc1N1CC[C@H](N)C1" and write its reported inhibition at 0.5 µM. 100

Read the entry "Cc1ccn2c(F)c(C(=O)N3CCCC[C@H]3c3cc4nc(N5CC[C@H](N)C5)c(C)cn4n3)nc2c1" and write its reported inhibition at 0.5 µM. 100

Read the entry "Cc1cn2nc([C@@H]3CCCCN3C(=O)c3cc(Cl)ccc3NS(C)(=O)=O)cc2nc1N[C@H](C)CO" and write its reported inhibition at 0.5 µM. 98

Read the entry "CCc1ocnc1C(=O)N1CCCC[C@H]1c1cc2nc(N3CC[C@H](N)C3)c(C)cn2n1" and write its reported inhibition at 0.5 µM. 97.8

Read the entry "Cc1cn2nc([C@@H]3CCCCN3C(=O)c3nnn(C)c3C)cc2nc1N1CC[C@H](N)C1" and write its reported inhibition at 0.5 µM. 100

Read the entry "CN(C)CCN(C)c1cc(N2CCC2)nc2cc([C@@H]3CCCCN3C(=O)c3cc(Cl)ccc3NS(C)(=O)=O)nn12" and write its reported inhibition at 0.5 µM. 100

Ref: patent US9238039B2
